Compiled literature pIC50, tested on LIM domain kinase 1 (Homo sapiens).
Sequence (P53667 whole entry, the tested form may be a part): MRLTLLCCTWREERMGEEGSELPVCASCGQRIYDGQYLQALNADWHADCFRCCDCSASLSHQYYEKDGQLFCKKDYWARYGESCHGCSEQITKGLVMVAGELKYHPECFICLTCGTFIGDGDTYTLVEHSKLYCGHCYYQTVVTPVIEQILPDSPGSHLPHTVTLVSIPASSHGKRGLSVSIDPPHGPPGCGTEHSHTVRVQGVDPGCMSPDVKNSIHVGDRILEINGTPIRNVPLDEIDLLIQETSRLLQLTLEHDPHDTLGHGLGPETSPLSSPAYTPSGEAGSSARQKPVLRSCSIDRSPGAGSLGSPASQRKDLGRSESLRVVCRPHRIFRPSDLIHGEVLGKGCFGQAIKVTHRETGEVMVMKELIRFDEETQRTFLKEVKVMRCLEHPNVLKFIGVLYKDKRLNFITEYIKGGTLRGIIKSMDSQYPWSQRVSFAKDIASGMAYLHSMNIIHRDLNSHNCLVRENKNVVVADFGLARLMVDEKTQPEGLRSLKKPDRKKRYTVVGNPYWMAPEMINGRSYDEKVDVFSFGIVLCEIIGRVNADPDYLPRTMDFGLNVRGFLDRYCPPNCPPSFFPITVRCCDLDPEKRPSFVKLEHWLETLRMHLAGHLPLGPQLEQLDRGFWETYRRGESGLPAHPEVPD
Hey, just a heads up that pIC50 is the negative log base 10 of the concentration in molar.

{"columns": ["query_smiles", "pIC50"],
 "data": [
  ["CCCNc1ncc(-c2cc(-c3cc(OCCC4CCCCC4)ccc3Cl)nc(-c3cnccn3)n2)s1", 6.84],
  ["COC(=O)c1cccc(NC(=O)C2(N)CCN(c3cc(NC(C)=O)ncn3)CC2)c1", 6.62],
  ["COC(=O)c1cccc(NC(=O)C2(CN(C)C)CCN(c3ncnc4[nH]ccc34)CC2)c1", 7.64],
  ["Cc1c[nH]c2ncnc(-c3ccc(NC(=O)N(CCO)c4ccccc4)c(F)c3)c12", 7.07]
]}

Consider the record given below.
Query: Record lookup: for LIM domain kinase 1 (Homo sapiens), what pIC50 belongs to COC(=O)c1cccc(NC(=O)C2(CN(C)C)CCN(c3ncnc4[nH]c(C)c(C)c34)CC2)c1 ?
Response: 7.59
